system: COLO 205 colon; test: NCI-60 one-dose screen, 48 h (100 = growth as untreated, 0 = no growth, -100 = all killed); settings: 10 µM unless noted
The panel holds about 83,000 compounds, 20% with a hit somewhere; the sample as a whole holds those more often.
measured-property: growth (%)
Could you give me the number in %? Just the number is fine.

*Q* Answer with the recorded growth of COc1cc(-c2csc(NC(=O)Nc3cccc(C(F)(F)F)c3)n2)cc(OC)c1OC only.
*A* 75.4

*Q* Answer with the recorded growth of CC(C)c1ccc(Cn2ccc3c4c(N)nc(NC5CC5)nc4ccc32)cc1 only.
*A* -78

*Q* Answer with the recorded growth of C=CCOc1c(Br)cc(Br)cc1Br only.
*A* 103

*Q* Answer with the recorded growth of OC(c1cc2cc(Cl)ccc2c2cc(C(F)(F)F)ccc12)C1CCCCN1 (stereo unspecified) only.
*A* -87.2

*Q* Answer with the recorded growth of COc1ccc(/C=c2\c(=O)n(-c3ccccc3)c3nn4c(n23)=NNC42CCCCC2)cc1 only.
*A* 105

*Q* Answer with the recorded growth of COc1c(B(O)O)cccc1-c1nc2c(F)cc3n[nH]c(C)c3c2c2c1CCCC2 only.
*A* 15.6

*Q* Answer with the recorded growth of O=C1CC2(O)CSc3nc(=O)cc(n32)N1 (stereo unspecified) only.
*A* 103

*Q* Answer with the recorded growth of Cc1nc2ccc(Nc3nc(NCCN4CCOCC4)nc(Nc4ccc(F)cc4)n3)cc2n1Cc1ccccc1 only.
*A* 1.19

*Q* Answer with the recorded growth of COc1cccc(/C=N/N=C(N)N)c1 only.
*A* 109

*Q* Answer with the recorded growth of CN(C)CCOc1nc2c3ccncc3cc(-c3cccc(Cl)c3)c2c2cnccc12 only.
*A* 13.8

*Q* Answer with the recorded growth of CCN(CC)CCCC(C)Nc1cnc(C(=O)Nc2cccc3ccc(OC)nc23)cn1 (stereo unspecified) only.
*A* 71.4

----------
test system: NCI-H322M lung; assay: NCI-60 one-dose screen, 48 h; conditions: 10 µM unless noted
This is part of a sample that, as a whole, favours compounds with a hit. Of some 83,000 tested, about 20% had one in any assay. The source made the active and inactive calls. Rule for the calls: active = growth percent below 10; inactive = the rest.
Would you mind answering with one of these outcomes? active, inactive

*Q* Could you please tell me the result logged for Fc1ccc2nc(-c3ccc(-c4noc(-c5ccc(Cl)cc5)n4)cc3)[nH]c2c1 in this assay?
*A* inactive

*Q* Could you please tell me the result logged for CC(=O)O[C@H]1[C@H](CC#CC#CC[C@@H]2C[C@]3(C)[C@H]4CC=C5[C@H]6[C@@H](C)[C@H](C)CC[C@]6(C(=O)NCCCCCCCCN)CC[C@@]5(C)[C@]4(C)CC[C@H]3C(C)(C)[C@H]2OC(C)=O)C[C@]2(C)[C@H]3CC=C4[C@H]5[C@@H](C)[C@H](C)CC[C@]5(C(=O)NCCCCCCCCN)CC[C@@]4(C)[C@]3(C)CC[C@H]2C1(C)C in this assay?
*A* inactive

*Q* Could you please tell me the result logged for Oc1ccc(CCCCCCc2ccc(O)cc2)cc1 in this assay?
*A* inactive

*Q* Could you please tell me the result logged for O=C(CCCCCCc1nc2ccc(Br)cc2[nH]1)NO in this assay?
*A* active

*Q* Could you please tell me the result logged for COC(=O)C(C)NC1=C(Cl)C(=O)C(NC(C)C(=O)OC)=C(Cl)C1=O (configuration not stated) in this assay?
*A* inactive

*Q* Could you please tell me the result logged for Oc1[nH]c2ccccc2c1/C=c1/ccc2c(c1)N=C(c1ccc(C(F)(F)F)cc1)N=2 in this assay?
*A* inactive

*Q* Could you please tell me the result logged for CC1=C(C(=O)Nc2ccc(F)cc2)C(c2ccc(C)cc2)C2=C(CC(C)(C)CC2=O)N1 (configuration not stated) in this assay?
*A* inactive

*Q* Could you please tell me the result logged for CC(=O)[C@H]1CC[C@H]2[C@@H]3CC[C@H]4CC=CC[C@]4(C)[C@H]3CC[C@]12C in this assay?
*A* inactive

*Q* Could you please tell me the result logged for COC(=O)C1(C)COP(=O)(NC23CC4CC(CC(C4)C2)C3)OC1 (configuration not stated) in this assay?
*A* inactive

*Q* Could you please tell me the result logged for CCCCn1c(-c2ccc(F)cc2)nc2cc(OC)c(OC)cc2c1=O in this assay?
*A* inactive

*Q* Could you please tell me the result logged for O=c1[nH]cnc2nc[nH]c12 in this assay?
*A* inactive

*Q* Could you please tell me the result logged for C#CC[C@@H]1C[C@]2(C)[C@H]3CC[C@@H]4[C@H]5C(C(=C)C)CC[C@]5(C(=O)NCCCN5CCN(CCCN)CC5)CC[C@@]4(C)[C@]3(C)CC[C@H]2C(C)(C)[C@H]1OC(C)=O (some centres not stated) in this assay?
*A* active

*Q* Could you please tell me the result logged for COc1cc(NC(C)CCCN)c2ncccc2c1Sc1ccc(Cl)cc1 (configuration not stated) in this assay?
*A* inactive

*Q* Could you please tell me the result logged for Cc1n(Cc2ccc3ccccc3n2)cc[n+]1Cc1ccc2ccccc2n1 in this assay?
*A* inactive

*Q* Could you please tell me the result logged for CCOC(C)(c1ccc(Cl)cc1)C1CCNCC1 (configuration not stated) in this assay?
*A* inactive

*Q* Could you please tell me the result logged for COc1cc(C2Nc3ccccc3S2)cc(CN2CCOCC2)c1O (configuration not stated) in this assay?
*A* inactive

*Q* Could you please tell me the result logged for O=C(Nc1ccc2[nH]c3ccccc3c2c1)c1ccccc1Cl in this assay?
*A* inactive

----------
test system: MALME-3M melanoma; assay: NCI-60 one-dose screen, 48 h (100 = growth as untreated, 0 = no growth, -100 = all killed); details: 10 µM unless noted
About 83,000 compounds went through this panel and 20% of them were active in at least one assay; those are over-represented in the sample as a whole. The source made the active and inactive calls. The calls were made as follows: active = growth percent below 10; inactive = the rest.
measured-property: growth

*Q* Answer with the recorded growth of CCCNC(=S)N/N=C(\C)c1ccccn1 only.
*A* 24.3% (inactive)

*Q* Answer with the recorded growth of CC(=O)Nc1ccc(Cl)cc1Cl only.
*A* 112% (inactive)

*Q* Answer with the recorded growth of COc1ccc(-c2nn(-c3cccc(Cl)c3)cc2/C=C2\C(=N)N(c3ccccc3)N=C2N)cc1 only.
*A* 28.8% (inactive)

*Q* Answer with the recorded growth of Clc1cn2cc(-c3ccc(Cl)c(Cl)c3Cl)nc2s1 only.
*A* 101% (inactive)

*Q* Answer with the recorded growth of NC(N)=N/N=C\c1cccc(OCc2ccccc2)c1 only.
*A* 85.8% (inactive)

*Q* Answer with the recorded growth of O=C1c2ccccc2C(=O)c2c1oc1ccc3ccccc3c21 only.
*A* 27.8% (inactive)

*Q* Answer with the recorded growth of CCCCN(CCCC)CCC(=O)c1ccc(OC)c2ccccc12 only.
*A* 124% (inactive)

*Q* Answer with the recorded growth of C=C1NC(=O)C(C(C)CC)NC(=O)C2CSCC(NC(=O)CCC(=O)O)C(=O)NC(Cc3ccccc3)C(=O)NC(C)C(=O)NC(CC(C)CC)C(=O)NC(C(=O)NC(Cc3ccccc3)C(=O)N3CCCC3C(=O)N2)C(C)OC(=O)C(CO)NC(=O)C(C(O)COC)N(C)C(=O)C(C(C)C)NC(=O)C(CC(C)CC)NC1=O (configuration not stated) only.
*A* 55.3% [6 µM] (inactive)

*Q* Answer with the recorded growth of NC(N)=N/N=C/c1ccccc1 only.
*A* 102% (inactive)

*Q* Answer with the recorded growth of O=C1c2ccccc2C2N1CCC1CCc3ccccc3N12 (configuration not stated) only.
*A* 88.9% (inactive)

*Q* Answer with the recorded growth of F only.
*A* -28.9% [6.87 mM] (active)

*Q* Answer with the recorded growth of COCCn1c(Nc2ccc(C(=O)NO)cc2)nc2ccccc21 only.
*A* 30.6% (inactive)

----------
system: HCT-116 colon; test: NCI-60 one-dose screen, 48 h (100 = growth as untreated, 0 = no growth, -100 = all killed); settings: 10 µM unless noted
About 83,000 compounds went through this panel and 20% of them were active in at least one assay; those are over-represented in the sample as a whole.
measured-property: growth (%)
Could you give me the number in %? Just the number is fine.

*Q* Answer with the recorded growth of O=c1[nH]cnc2nc[nH]c12 only.
*A* 98.1

*Q* Answer with the recorded growth of CC(C)CC(NC(=O)OCC1c2ccccc2-c2ccccc21)C(=O)O (stereo unspecified) only.
*A* 103

*Q* Answer with the recorded growth of COC(=O)C1(C)COP(=O)(NC23CC4CC(CC(C4)C2)C3)OC1 (stereo unspecified) only.
*A* 108

*Q* Answer with the recorded growth of C#CCNC(=S)N/N=C(\C)c1ccccn1 only.
*A* 1.22

*Q* Answer with the recorded growth of COc1ccc(/C=C2\N=C(c3cccnc3)N(c3ccccc3)NC2=O)cc1 only.
*A* 97.1

*Q* Answer with the recorded growth of COc1ccccc1NC(=O)OCC12COCN1COC2 only.
*A* 113

*Q* Answer with the recorded growth of Fc1cnccc1-c1nc2ccc3[nH]ncc3c2c2c1CCCC2 only.
*A* 7.21

*Q* Answer with the recorded growth of CC1=C(O)C(=O)C(c2c(C)cc(C)c(Br)c2C)=C(O)C1=O only.
*A* 54.4

*Q* Answer with the recorded growth of COc1c(B(O)O)cccc1-c1nc2ccc3[nH]ncc3c2c2c1CCCC2 only.
*A* 6

*Q* Answer with the recorded growth of Cc1ccc2oc(=O)cc(-c3nc4ccc([N+](=O)[O-])cc4[nH]3)c2c1 only.
*A* 8.52

*Q* Answer with the recorded growth of COC(=O)c1ccc(NC(N)=NCCC(C)(C)c2ccc(C(F)(F)F)cc2)nc1 only.
*A* 8.17

*Q* Answer with the recorded growth of NNC(=O)Cc1ccccc1 only.
*A* 90.6

*Q* Answer with the recorded growth of Cc1ccc2nc(CN(CCN(Cc3nc4ccc(C)cc4[nH]3)Cc3nc4ccc(C)cc4[nH]3)Cc3nc4ccc(C)cc4[nH]3)[nH]c2c1 only.
*A* -96.3

*Q* Answer with the recorded growth of Nc1c(C(=O)c2ccc(Br)cc2)sc2nc3c(cc12)CCCC3 only.
*A* 98.5

*Q* Answer with the recorded growth of O=C1CC2(O)CSc3nc(=O)cc(n32)N1 (stereo unspecified) only.
*A* 106

*Q* Answer with the recorded growth of CCSc1ccc([C@@H]2[C@@H](N)C(=O)N2c2cc(OC)c(OC)c(OC)c2)cc1 only.
*A* 10.2

*Q* Answer with the recorded growth of Cc1ccc(NC(=O)Cn2nncc2CN2C(=O)CSC2=O)cc1C only.
*A* 102

*Q* Answer with the recorded growth of C#CC[C@@H]1C[C@]2(C)[C@H]3CC[C@@H]4[C@H]5C(C(=C)C)CC[C@]5(C(=O)NCCCCN)CC[C@@]4(C)[C@]3(C)CC[C@H]2C(C)(C)[C@H]1OC(C)=O (stereo partly specified) only.
*A* -85.7

*Q* Answer with the recorded growth of NC(N)=N/N=C/c1ccccc1 only.
*A* 92.8

*Q* Answer with the recorded growth of COc1ccc(/C=C/C(=O)c2ccc(NC(=O)CSc3nnc(-c4ccc(Cl)cc4)n3-c3ccccc3)cc2)cc1 only.
*A* 36.4

*Q* Answer with the recorded growth of COc1cc2c(cc1I)-c1c(cc(OC)c(OC)c1OC)CC[C@@H]2NC(C)=O only.
*A* 6.59

*Q* Answer with the recorded growth of Nc1ccc(N(O)/C=C2\C=CC=CC2=O)cc1N only.
*A* 85.1

*Q* Answer with the recorded growth of O=C(Nc1ccc(OS(=O)(=O)c2ccc(F)cc2)cc1)C12CC3CC(CC(C3)C1)C2 only.
*A* 33.7

*Q* Answer with the recorded growth of COc1cc(OC)cc(-c2n/c(=C\c3c(O)[nH]c4ccc(Cl)cc34)cc3c2=Nc2ccccc2-3)c1 only.
*A* 2.45

*Q* Answer with the recorded growth of c1ccc2c(Cc3csc4ccccc34)csc2c1 only.
*A* 78

*Q* Answer with the recorded growth of CCC(C)C1NC(=O)c2nc(oc2-c2ccccc2)-c2csc(n2)-c2csc(n2)-c2nc(oc2C)-c2coc(n2)CNC(=O)C(C(C)CC)NC1=O (stereo unspecified) only.
*A* -59

*Q* Answer with the recorded growth of CNC(=O)c1cc(Oc2ccc(NC(=O)c3[nH]c(SC)nc3-c3ccc(F)cc3)cc2)ccn1 only.
*A* 62.9

*Q* Answer with the recorded growth of CCCc1n(Cc2ccc3ccccc3c2)c2ccccc2[n+]1Cc1ccc2ccccc2c1 only.
*A* -91.2

*Q* Answer with the recorded growth of CC(C)c1[nH]ncc1-c1nc2ccc3[nH]ncc3c2c2c1CCCC2 only.
*A* 12.2

*Q* Answer with the recorded growth of CC(C)OC(=O)c1ccc([N+](=O)[O-])cc1 only.
*A* 110

*Q* Answer with the recorded growth of Cc1cc(C)c([O-])c(CN(C)CCN(C)Cc2cc(C)cc(C)c2[O-])c1.O=C([O-])c1cccc(C(=O)[O-])n1.[Ti+4] only.
*A* 4.86

*Q* Answer with the recorded growth of O=C1c2ccccc2C2N1CCC1CCc3ccccc3N12 (stereo unspecified) only.
*A* 93.7

*Q* Answer with the recorded growth of C=CCn1c(C)nc2cc(Nc3nc(Nc4ccc5nc(C)n(CC=C)c5c4)nc4ccccc34)ccc21 only.
*A* 98.9

*Q* Answer with the recorded growth of CC[C@H](Nc1nc(C)nc(N)c1C#N)c1nc2cccc(NCc3ccc(C(=O)NO)cc3)c2c(=O)n1-c1ccccc1 only.
*A* 3.59

*Q* Answer with the recorded growth of Cc1ccc2cc3c(NC(=O)c4cccnc4)nn(C)c3nc2c1 only.
*A* 86.2

*Q* Answer with the recorded growth of N#Cc1nc(-c2cccc(Br)c2)cc(-c2ccc(Nc3nc(N4CCCCC4)nc(N4CCCCC4)n3)cc2)c1N only.
*A* -60.4

*Q* Answer with the recorded growth of CC(=O)OC1Oc2cc(C)c(C)cc2-c2oc(=O)c(-c3cc4ccccc4oc3=O)cc21 (stereo unspecified) only.
*A* 81.1

*Q* Answer with the recorded growth of Oc1ccc(Nc2ncnc3c2sc2ncccc23)cc1 only.
*A* 27.5

*Q* Answer with the recorded growth of CNC(=O)c1cc(Oc2ccc(NC(=O)c3nc(S(C)(=O)=O)sc3-c3ccc(F)cc3)cc2)ccn1 only.
*A* 85.3

*Q* Answer with the recorded growth of COc1ccc(CCN2COc3c([C@@H](C)CCC=C(C)C)ccc(C)c3C2)cc1OC only.
*A* 25.9

*Q* Answer with the recorded growth of CCc1oc2ccccc2c1C(=O)c1cc(I)c(O)c(I)c1 only.
*A* 22.3
